Test: NCI Yeast Anticancer Drug Screen. Data for the rad50 strain (AID 155);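 further: 0% = growth of vehicle-only cultures of the same strain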
Conditions: S. cerevisiae rad50 strain growth inhibition; at 50.0 µM (retest, dose inferred, filed as 5.0); active compounds read high
About 79,000 compounds went through this panel and 15% of them were active in at least one assay; those are over-represented in the sample as a whole. The source made the active and inactive calls. No stated cut-off is given here; in the data, active means growth inhibition above about 70%; inactive means the rest.
assay-endpoint: growth inhibition

INSERT INTO assay_data (compound, assay_result) VALUES
  ('CCN(CC)C(=S)N/N=C(\C)c1cccc(C)n1', '100% (active)'),
  ('CC(=O)O[C@@H]1CO[C@H]2O[C@H]3[C@@H](C(C=O)=C[C@H](O)[C@@H]4C5=C(C(C)C)CC[C@]5(C)CC[C@@]34C)[C@@]2(O)C1=O', '99% (active)'),
  ('CO/N=C/c1ccc([N+](=O)[O-])s1', '95% (active)'),
  ('CCCCCCCCCCCCCCCCCCOC(=O)C(N)Cc1ccccc1 (centres undefined)', '-9% (inactive)'),
  ('N#CC(=C1C=CC(=NOC(=O)Nc2ccccc2)C=C1)c1ccccc1', '98% (active)');

Item `Cc1nc(Nc2ccccc2)sc1C(=O)NNc1ccc([N+](=O)[O-])cc1[N+](=O)[O-]` has what recorded growth inhibition? 19% (inactive)

Given the entry `O=C(Nc1ccccc1C(=O)NC(=O)c1ccccc1NC(=O)c1ccccc1)c1ccccc1` , report its measured growth inhibition. 99% (active)

What measured growth inhibition goes with `O=Cc1cc2c(s1)C(=O)c1sccc1C2=O` ? 99% (active)

Reported growth inhibition, compound CC1SC2(C(=O)Nc3ccc(Br)cc32)N(c2ccc(Cl)cc2)C1=O (centres undefined) : ____ 99% (active)

Fill in the blank: the reported growth inhibition of CC(C)(C)CCCC(C(=O)O)c1ccccc1 (centres undefined) is ____. 50% (inactive)

growth inhibition lookup needed for `CC(C)(C)NC(=S)N/N=C/c1ccccc1O` , thanks. 66% (inactive)

Recorded growth inhibition for `O=C1c2ccccc2-c2nc3ncccc3cc21` , please? 93% (active)

# get_value(readout='growth inhibition', item= OC(C1CCCCN1)C1CC(c2ccccc2)Nc2c(Cl)cc(Cl)cc21 (centres undefined) ) 99% (active)

What value of growth inhibition has been recorded for this entry: `O=c1c(Cl)cc2nc3ccccc3sc-2c1Cl` 72% (active)

* * *

Experiment: NCI Yeast Anticancer Drug Screen. Data for the bub3 strain (AID 167)
Conditions: S. cerevisiae bub3 mutant strain, at 50.0 µM (retest, dose inferred, filed as 5.0)
Compounds without any hit were thinned out: in the full panel of roughly 79,000, 15% have a hit. The source made the active and inactive calls. Cut-off read from the data, not from the text of the source: active = growth inhibition above about 70%; inactive = the rest.
Mark one answer only. Choices: 1 = active, -1 = inactive

INSERT INTO results (compound, label_value) VALUES
  ('CCOC(CC)C(O)(c1ccc(N(C)C)cc1)c1ccc(N(C)C)cc1 (stereo unspecified)', 1),
  ('c1ccc(OCCCOc2ccccc2)cc1', -1),
  ('O=C(CBr)c1cccc(OC(=O)c2ccccc2)c1', 1),
  ('NC(N)=NC(N)=Nc1ccc(-c2ccccc2)cc1', 1),
  ('Brc1ccc(C2c3ccccc3-c3ccccc32)cc1', 1);

Which outcome was entered for the compound `CCOc1ccc2nc([NH-])sc2c1.CCOc1ccc2nc([NH-])sc2c1.[Cl][Pt+2][Cl]` in this test? -1

Please let me know the test result on file for `Cc1ccc(SC2=C(N(C)C)C(=O)c3ccccc3C2=O)cc1` . 1

Each compound tested received a call. Report the one for `CCCCCCCCCCCCCCC[C@@H](O)C[N+](C)(C)CCO` . 1

Please state the recorded outcome for this compound: `CCCN(CCC)Cc1cc2c(cc1O)CC[C@@H]1[C@@H]2CC[C@]2(C)C(=O)CC[C@@H]12` 1

GET /call?item= COC12C=CC(CC1)c1c2c(O)c2ccncc2c1O (stereo unspecified) returns the recorded outcome of this test. 1

Assay result, entry `CS(=O)(=O)OCCN(CCOS(C)(=O)=O)c1ccc(C=Nc2ccc(-c3csc(-c4ccc(Cl)cc4)n3)cc2)cc1` — outcome? -1

Origin of the recorded values: PubChem BioAssay (NCI)
